Overview of recorded melting point for various molecules

# molecule, melting point
records = [
    ("COc1ccc(-c2cc3cc(OC)cc(C=NO)c3o2)cc1", "185 to 187 °C"),
    ("CCCCCC(C)C(C)c1cc(O)c2c(c1)OC(C)(C)C1=C2CN(CC(=O)Nc2ccccc2)CC1 (centres undefined)", "125 to 127 °C"),
    ("CC(O)(C(=O)Nc1cc(S(=O)(=O)c2ccccc2)ccc1Cl)C(F)(F)F (centres undefined)", "79 to 80 °C"),
    ("C=CC1=C(C(=O)O)C(C(F)(F)F)Oc2ccc(Cl)cc21 (centres undefined)", "143 to 145 °C"),
]

====

Listed below: melting point values for each entry.
quantity: melting point

# compound, value
data = [
    ("COc1ccc(C2(CNC(=S)NCC(C)C)OCCO2)cc1", "96 °C"),
    ("COC(=O)CCCCC(C)C1CCC2C3CCC4CC(OC=O)CCC4(C)C3CC(OC=O)C12C (stereo not given)", "67 to 72 °C"),
    ("COC(=O)c1ccc(Cl)c(N)c1Cl", "50 to 52 °C"),
    ("O=C(O)CCCCCc1cnc2ccccc2c1", "129 to 131 °C"),
    ("CCCCCCCCC(O)CNCCNCC(O)CCCCCCCC (stereo not given)", "140 to 146 °C"),
]

====

Reported melting point values for a set of compounds

# compound, melting point
measured = [
    ("O=Cc1c[nH]c2ncc(-c3cccc(N4CCN(C(=O)C5CCNCC5)CC4)c3)nc12", "> 300 °C"),
    ("Cc1c(C)c2c(c(C)c1O)CCC(C)(C(=O)Nc1ccccc1)O2 (stereo unspecified)", "107 to 109 °C"),
    ("Cn1cc(-c2ccccc2)c(=O)c(-c2cccc(S(=O)(=O)c3ccccc3)c2)c1", "65 to 72 °C"),
    ("COC(=O)C1=C(C)NC(C)=C(C(=O)OCCN2CCN(C(c3ccccc3)c3ccccc3)CC2)C1c1cccc(Cl)c1 (stereo unspecified)", "74 to 80 °C"),
    ("CCOC(=O)Cc1ccc(CCNC(=O)c2ccc(Cl)cc2)cc1", "118 to 119 °C"),
    ("CCC1OCC(O)CO1 (stereo unspecified)", "62 to 68.5 °C"),
    ("COCCOc1cc(OCCOC)c2c(=O)[nH]c(-c3cc(C)nc(C)c3)nc2c1", "150 to 151 °C"),
    ("CC1(C)CC(=O)C(S(=O)Cc2ccc(Cl)cc2)=C(O)C1 (stereo unspecified)", "144 to 145 °C"),
    ("CC(C)c1ccc(N)c(C(=O)NCC2CCN(C(c3ccccc3)c3ccccc3)CC2)c1", "114 to 116 °C"),
    ("CC(=O)NCC[C@@H]1CCc2ccc3nn(C)c(Br)c3c21", "167 to 169 °C"),
    ("O=C(O)COC1=C(Cc2ccc3c(Br)cccc3c2)C(=O)CCC1", "234 to 236 °C"),
    ("Cc1nnc2sc3cc(Cl)ccc3n12", "186 to 188 °C"),
    ("Cc1cc(-c2ccc(C(=O)N3CCN(S(=O)(=O)c4ccc5cc(Br)ccc5c4)CC3)cc2)ccn1", "204 to 205 °C"),
    ("CN(C)C=Nc1nc(=O)n(C(=O)OCC(C)(C)C)cc1F", "162 to 164 °C"),
    ("Cc1cc(F)ccc1NC(=O)c1cccc(S(=O)(=O)N(C)c2ccc(Br)cc2)c1", "163 to 165 °C"),
    ("O=C(CC1CCCCC1)Nc1c(Cl)ccc2nc(N3CC[C@@H](O)C3)ccc12", "219 to 221 °C"),
    ("O=C(CCc1ccccc1)N1CCN(C(=O)C(Cc2ccc(O)cc2)NS(=O)(=O)c2cccc3cnccc23)CC1 (stereo unspecified)", "172 to 178 °C"),
    ("CC(O)(c1ccc(Cl)cc1)C1CCNCC1 (stereo unspecified)", "178 to 180 °C"),
    ("COc1cccc(-c2cnc3[nH]cc(C(=O)C4(C)CCCCC4)c3n2)c1", "173 to 175 °C"),
    ("Cn1c(Cl)c(C=C(C#N)S(C)(=O)=O)c2ccccc21", "180 °C"),
    ("CCOC(=O)c1cn(C2CC2)c2cc(-n3cccc3)c(F)cc2c1=O", "216 to 219 °C"),
    ("CCOC(=O)CCN=c1sc2ccc(Cl)cc2s1", "64 to 65 °C"),
    ("O=C(NCc1ccc(C(F)(F)F)cc1)Nc1cccc2[nH]ccc12", "178 °C"),
    ("CN(CCc1ccccc1)C(=O)Cn1cc(CCC(=O)O)c2cc(OCc3ccccc3)ccc21", "122 to 125 °C"),
    ("CCOP(=O)(OCC)c1cc2cc(N)c(C(F)(F)F)cc2[nH]c1=O", "240 to 244 °C"),
    ("CCOC(=O)c1cc2cc(Cl)c(F)cc2[nH]1", "160 to 164 °C"),
    ("CC(C)N1C(=O)c2ccccc2Oc2ccccc21", "102 to 103 °C"),
    ("COc1cc(C=O)cc(OC)c1O[Si](C)(C)C(C)(C)C", "68 °C"),
    ("Oc1ccc(-c2c3ccc(O)cc3cc3sc4ccccc4c23)cc1", "233 to 235 °C"),
    ("COCC1CN(c2ccc(C3CCC(OCCC#N)CC3)cc2)C(=O)O1 (racemic)", "57 to 59 °C"),
    ("CCOCC(=O)N1Cc2cc(Cl)ccc2CC(C)C1=O (stereo unspecified)", "123 to 124 °C"),
    ("Cc1ccc(N)cc1C(=S)OC(C)(C)C", "76 to 78 °C"),
    ("CC1CCc2c(-n3ccnc3)c(F)cc3c(=O)c(C(=O)O)cn1c23 (stereo unspecified)", "> 250 °C"),
    ("CO/C=C(/C(=O)OC)c1cccnc1Oc1cccc(O)c1", "163 to 165 °C"),
    ("CCc1cccc2c3c([nH]c12)C(CC)(CCF)OCC3 (stereo unspecified)", "118 to 119 °C"),
    ("O=C(N[C@@H](Cn1cccn1)C(=O)O)OCc1ccccc1", "166 to 168 °C"),
]

====

Known melting point of a selection of compounds

# compound, melting point
rows = [
    ("N#Cc1cnn(-c2ccc(F)cc2F)c1Cl", "120 to 122 °C"),
    ("COc1ccc(-c2coc3cc(O)ccc3c2=O)c(O)c1", "210 to 212 °C"),
    ("CC(C)(C)OC(=O)CC[C@H](NC(=O)c1ccc(NCc2ccccc2)c(F)c1)C(=O)OC(C)(C)C", "80 to 82 °C"),
    ("O=C(COc1ccccc1)NC1C(=O)NC1SCC(=O)C1CCCS1 (mixture of isomers)", "123 °C"),
    ("c1ccc2c(c1)SCCc1c-2n(CCCN2CCCCC2)c2ccccc12", "84 to 87 °C"),
    ("Cc1cc2c(c(C(O)=S)c1)OCCO2", "181 to 183 °C"),
    ("CC(=O)Nc1ccc(OC(=O)CCl)cc1", "186 °C"),
    ("CN(C)C1CC=C(c2c[nH]c3ccc(N)cc23)CC1 (stereo not drawn)", "63 to 65 °C"),
    ("CCNc1c(C(=O)OCC)c(C)nc2nccnc12", "72 to 74 °C"),
    ("C=CCNc1c(C(C)=O)cnc2cn[nH]c12", "211 to 213 °C"),
    ("CC(=O)Nc1cccc(C(=O)NC(C)(C)C)c1", "194 to 195 °C"),
    ("CC(=O)Nc1cccc(-c2c(C)c(NC(=O)CC(C)(C)C)c(C)c3c2OCC3c2ccc(C(C)C)cc2)n1 (stereo not drawn)", "205 to 208 °C"),
    ("COC(=O)Cc1ccccc1CSc1nc2cc(C(F)(F)F)ccc2s1", "97 to 99 °C"),
    ("Cc1nc2n(c(=O)c1CCN1CCC(C(=NO)c3ccc(F)cc3F)CC1)CCCC2", "180 to 183 °C"),
    ("CN1C(CCCCCBr)Nc2cc(Cl)c(S(=O)(=O)NCc3ccccc3)cc2S1(=O)=O (stereo not drawn)", "141 to 142 °C"),
    ("CS(=O)(=O)Nc1ccc(F)c(C(=O)C[N+](=O)[O-])c1", "174 to 176 °C"),
    ("Nc1ccc(C#Cc2nc(F)c(F)c(F)c2F)c(C#Cc2nc(F)c(F)c(F)c2F)c1", "164 to 165 °C"),
    ("C=C(C)C(=O)OC(COc1ccc(C(=O)c2ccccc2)c(O)c1)COc1ccc(C(=O)c2ccccc2)c(O)c1", "138 to 139 °C"),
    ("CC(C)Cc1csc(NC(=O)OC(C)(C)C)c1C(=O)O", "154 to 155 °C"),
    ("CC(C)C[C@H](NC(=O)[C@H](Cc1c[nH]cn1)NC(=O)[C@H](Cc1ccccc1)NC(=O)OCc1ccccc1)[C@H](O)CO", "159 to 162 °C"),
    ("COc1ccc2c(C)c(-c3c(OC)cccc3OC(C)=O)c(=O)oc2c1", "125 to 126 °C"),
    ("O=C(NCc1cccs1)c1ccc(CN2C(=O)C3(COc4cc5c(cc43)CCO5)c3ccccc32)cc1 (stereo not drawn)", "167 to 168 °C"),
    ("OCC1OC(n2cnc3c(NCCc4csc5ccc(Cl)cc45)ncnc32)C(O)C1O (stereo not drawn)", "167 to 169 °C"),
    ("NS(=O)(=O)Oc1ccc(I)cc1", "146 to 147 °C"),
    ("O=C(O)CCc1oc(NC2CCCCC2)nc1-c1ccc(Cl)cc1", "237 to 238 °C"),
    ("CN(CCCc1ccccc1)[C@H]1CC[C@H](c2ccc([N+](=O)[O-])cc2)CC1", "55 to 56 °C"),
    ("COC(=O)CC(=O)C[C@H]1NC(=O)[C@@H]1N1C(=O)c2ccccc2C1=O", "116 to 120 °C"),
    ("COc1cccc(OC)c1-c1cc(C(=O)NC2(C(=O)O)C3CC4CC(C3)CC2C4)nn1-c1ccc(NC=O)c2ccccc12 (stereo not drawn)", "270 °C"),
    ("C1=c2ccccc2=c2c1c1cnccc1c1c2=Cc2ccccc2-1", "225 to 227 °C"),
    ("CCOC(=O)Cc1ccc(-c2nc(CCl)c(C)o2)cc1", "87 to 88 °C"),
    ("COc1cccc(Nc2nc(-n3nc(C)cc3C)nc3ccccc23)c1", "193 to 195 °C"),
    ("CC(=NOCc1cc(C(F)(F)F)ccc1C(F)(F)F)c1cc(Cl)ccc1NS(=O)(=O)C(F)(F)F", "73 to 75 °C"),
    ("CCCc1c(OCCCOc2ccc(C(C)=O)c(OCCCC(=O)O)c2CCC)ccc(C(C)=O)c1O", "50 to 53 °C"),
]

The reported measurements were obtained from a melting point compilation (Tetko et al.; mined from patent text by program, amines drawn as free bases though some values may be those of a salt).
